testedOn: Muscarinic acetylcholine receptor M3 (Cavia porcellus) (UniProt Q8VH26)
Sequence (Q8VH26 1-587): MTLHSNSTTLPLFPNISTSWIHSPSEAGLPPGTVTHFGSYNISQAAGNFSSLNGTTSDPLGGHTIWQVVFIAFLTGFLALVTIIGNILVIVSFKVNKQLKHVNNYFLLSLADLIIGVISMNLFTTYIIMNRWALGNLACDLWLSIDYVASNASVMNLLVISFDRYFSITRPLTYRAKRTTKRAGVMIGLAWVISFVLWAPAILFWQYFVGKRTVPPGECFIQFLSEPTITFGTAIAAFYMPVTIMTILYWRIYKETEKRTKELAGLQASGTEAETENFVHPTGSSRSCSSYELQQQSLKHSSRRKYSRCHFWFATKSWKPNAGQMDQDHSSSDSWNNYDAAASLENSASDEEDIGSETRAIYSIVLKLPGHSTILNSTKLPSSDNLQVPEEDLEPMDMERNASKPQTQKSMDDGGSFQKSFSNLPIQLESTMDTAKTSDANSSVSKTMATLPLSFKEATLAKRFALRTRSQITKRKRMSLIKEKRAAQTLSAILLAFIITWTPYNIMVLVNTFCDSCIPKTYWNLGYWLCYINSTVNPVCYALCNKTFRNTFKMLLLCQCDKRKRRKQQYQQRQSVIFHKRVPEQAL
protocolSummary: Affinity for Muscarinic acetylcholine receptor M3 of guinea pig ileum.
Type: tissue-based
Lab note: anything with pKb at or over 8 counts as satisfied; the rest go in not satisfied.

compound=C[C@H]([C@@H]1COC(c2ccccc2)(c2ccccc2)O1)N(C)C labelclass="not satisfied"
compound="CC(C1COC(c2ccccc2)(c2ccccc2)O1)N(C)C (racemic; form 1)" labelclass="not satisfied"
compound="CN(C)CC1COC(c2ccccc2)(c2ccccc2)O1 (stereo not given)" labelclass="not satisfied"
compound="C[C@H](C1COC(c2ccccc2)(c2ccccc2)O1)[N+](C)(C)C (stereo not given in full)" labelclass="not satisfied"
compound=C[C@H]([C@@H]1COC(c2ccccc2)(c2ccccc2)O1)[N+](C)(C)C labelclass=satisfied
compound="C[C@H](C1COC(c2ccccc2)(c2ccccc2)O1)N(C)C (stereo not given in full)" labelclass="not satisfied"

====

Catalogue of compounds with associated pKb
testedOn: Muscarinic acetylcholine receptor M3 (Cavia porcellus)
protocolSummary: Affinity for Muscarinic acetylcholine receptor M3 of guinea pig ileum.
Type: tissue-based
measurementType: pKb

compound="CC(C1COC(c2ccccc2)(c2ccccc2)O1)[N+](C)(C)C (racemic; form 1)" testedon="Muscarinic acetylcholine receptor M3 (Cavia porcellus)" numericreadout=8.3
compound="C[C@@H](C1COC(c2ccccc2)(c2ccccc2)O1)N(C)C (stereo partly drawn)" testedon="Muscarinic acetylcholine receptor M3 (Cavia porcellus)" numericreadout=7.19
compound=C[C@@H]([C@H]1COC(c2ccccc2)(c2ccccc2)O1)N(C)C testedon="Muscarinic acetylcholine receptor M3 (Cavia porcellus)" numericreadout=8.92

====

testedOn: Muscarinic acetylcholine receptor M2 (Homo sapiens)
Sequence (whole entry): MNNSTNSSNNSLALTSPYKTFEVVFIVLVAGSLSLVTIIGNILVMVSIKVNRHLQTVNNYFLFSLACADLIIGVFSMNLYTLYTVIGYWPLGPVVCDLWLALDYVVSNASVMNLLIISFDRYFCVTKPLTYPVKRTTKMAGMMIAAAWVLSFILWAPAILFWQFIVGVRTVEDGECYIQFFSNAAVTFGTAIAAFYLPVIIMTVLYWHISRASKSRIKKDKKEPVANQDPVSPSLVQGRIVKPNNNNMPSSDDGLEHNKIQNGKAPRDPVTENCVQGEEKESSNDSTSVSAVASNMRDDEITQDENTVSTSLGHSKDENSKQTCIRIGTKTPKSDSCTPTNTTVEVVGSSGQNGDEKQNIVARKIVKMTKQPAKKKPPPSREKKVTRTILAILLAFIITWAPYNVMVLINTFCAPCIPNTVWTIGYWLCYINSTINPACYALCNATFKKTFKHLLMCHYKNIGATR
protocolSummary: Affinity for Muscarinic acetylcholine receptor M2 of guinea pig heart.
testContext: Cavia porcellus; target entry is the homologue from another species
Here the recorded pKb is given for each entry.
measurementType: pKb

compound="CN(C)CC1COC(c2ccccc2)(c2ccccc2)O1 (stereo not given)" testedon="Muscarinic acetylcholine receptor M2 (Homo sapiens)" numericreadout=7.11
compound="C[C@H](C1COC(c2ccccc2)(c2ccccc2)O1)N(C)C (stereo not given in full)" testedon="Muscarinic acetylcholine receptor M2 (Homo sapiens)" numericreadout=6.41
compound="C[C@H](C1COC(c2ccccc2)(c2ccccc2)O1)[N+](C)(C)C (stereo not given in full)" testedon="Muscarinic acetylcholine receptor M2 (Homo sapiens)" numericreadout=7.53
compound=C[C@@H]([C@H]1COC(c2ccccc2)(c2ccccc2)O1)N(C)C testedon="Muscarinic acetylcholine receptor M2 (Homo sapiens)" numericreadout=8.39
compound=C[C@@H]([C@H]1COC(c2ccccc2)(c2ccccc2)O1)[N+](C)(C)C testedon="Muscarinic acetylcholine receptor M2 (Homo sapiens)" numericreadout=7.82
compound="CC(C1COC(c2ccccc2)(c2ccccc2)O1)N(C)C (racemic; form 2)" testedon="Muscarinic acetylcholine receptor M2 (Homo sapiens)" numericreadout=8.03
compound=C[C@H]([C@@H]1COC(c2ccccc2)(c2ccccc2)O1)N(C)C testedon="Muscarinic acetylcholine receptor M2 (Homo sapiens)" numericreadout=7.47
compound=C[C@H]([C@@H]1COC(c2ccccc2)(c2ccccc2)O1)[N+](C)(C)C testedon="Muscarinic acetylcholine receptor M2 (Homo sapiens)" numericreadout=8.38
compound="CC(C1COC(c2ccccc2)(c2ccccc2)O1)[N+](C)(C)C (racemic; form 1)" testedon="Muscarinic acetylcholine receptor M2 (Homo sapiens)" numericreadout=8.22
compound="CC(C1COC(c2ccccc2)(c2ccccc2)O1)[N+](C)(C)C (racemic; form 2)" testedon="Muscarinic acetylcholine receptor M2 (Homo sapiens)" numericreadout=8.07

====

testedOn: Muscarinic acetylcholine receptor M1 (Homo sapiens)
protocolSummary: Affinity for Muscarinic acetylcholine receptor M1 of rabbit vas deferens.
testContext: Oryctolagus cuniculus; target entry is the homologue from another species
measurementType: pKb

molecule=C[C@H]([C@@H]1COC(c2ccccc2)(c2ccccc2)O1)N(C)C numericreadout=6.83
molecule="CN(C)CC1COC(c2ccccc2)(c2ccccc2)O1 (stereo not drawn)" numericreadout=7.15
molecule="C[C@H](C1COC(c2ccccc2)(c2ccccc2)O1)[N+](C)(C)C (stereo partly drawn)" numericreadout=8.24
molecule="C[C@H](C1COC(c2ccccc2)(c2ccccc2)O1)N(C)C (stereo partly drawn)" numericreadout=6.52
molecule=C[C@H]([C@@H]1COC(c2ccccc2)(c2ccccc2)O1)[N+](C)(C)C numericreadout=8.23
molecule="CC(C1COC(c2ccccc2)(c2ccccc2)O1)N(C)C (racemic; form 2)" numericreadout=8.11
molecule="CC(C1COC(c2ccccc2)(c2ccccc2)O1)[N+](C)(C)C (racemic; form 2)" numericreadout=7.82
molecule=C[C@@H]([C@H]1COC(c2ccccc2)(c2ccccc2)O1)N(C)C numericreadout=8.46
molecule=C[C@@H]([C@H]1COC(c2ccccc2)(c2ccccc2)O1)[N+](C)(C)C numericreadout=7.47
molecule="C[C@@H](C1COC(c2ccccc2)(c2ccccc2)O1)[N+](C)(C)C (stereo partly drawn)" numericreadout=7.12
molecule="CC(C1COC(c2ccccc2)(c2ccccc2)O1)N(C)C (racemic; form 1)" numericreadout=6.95
molecule="C[C@@H](C1COC(c2ccccc2)(c2ccccc2)O1)N(C)C (stereo partly drawn)" numericreadout=6.94
molecule="CC(C1COC(c2ccccc2)(c2ccccc2)O1)[N+](C)(C)C (racemic; form 1)" numericreadout=8.01

====

Property: pKb; scope: individual molecules
testedOn: Muscarinic acetylcholine receptor M2 (Homo sapiens) (UniProt P08172)
Sequence (whole entry): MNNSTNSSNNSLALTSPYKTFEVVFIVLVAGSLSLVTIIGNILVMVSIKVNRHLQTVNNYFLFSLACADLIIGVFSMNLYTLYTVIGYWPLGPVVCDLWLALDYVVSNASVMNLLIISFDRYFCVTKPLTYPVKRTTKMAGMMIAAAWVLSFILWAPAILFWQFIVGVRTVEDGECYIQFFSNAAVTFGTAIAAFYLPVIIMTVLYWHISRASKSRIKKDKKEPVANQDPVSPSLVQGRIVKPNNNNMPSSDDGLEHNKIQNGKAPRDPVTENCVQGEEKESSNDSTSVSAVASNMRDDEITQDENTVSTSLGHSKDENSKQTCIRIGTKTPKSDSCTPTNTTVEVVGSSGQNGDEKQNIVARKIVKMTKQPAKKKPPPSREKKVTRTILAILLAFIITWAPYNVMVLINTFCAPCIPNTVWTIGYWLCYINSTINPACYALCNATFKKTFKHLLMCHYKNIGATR
protocolSummary: Affinity for Muscarinic acetylcholine receptor M2 of guinea pig heart.
testContext: Cavia porcellus; target entry is the homologue from another species
measurementType: pKb

molecule="C[C@@H](C1COC(c2ccccc2)(c2ccccc2)O1)[N+](C)(C)C (stereo partly drawn)" numericreadout=8.21
molecule="CC(C1COC(c2ccccc2)(c2ccccc2)O1)N(C)C (racemic; form 1)" numericreadout=7.2
molecule="C[C@@H](C1COC(c2ccccc2)(c2ccccc2)O1)N(C)C (stereo partly drawn)" numericreadout=7.35

====

testedOn: Muscarinic acetylcholine receptor M3 (Cavia porcellus) (UniProt Q8VH26)
protocolSummary: Affinity for Muscarinic acetylcholine receptor M3 of guinea pig ileum.
Assay type: tissue-based
measurementType: pKb

molecule="CC(C1COC(c2ccccc2)(c2ccccc2)O1)N(C)C (racemic; form 2)" measurementtype=pKb numericreadout=7.94
molecule=C[C@@H]([C@H]1COC(c2ccccc2)(c2ccccc2)O1)[N+](C)(C)C measurementtype=pKb numericreadout=7.85
molecule="C[C@@H](C1COC(c2ccccc2)(c2ccccc2)O1)[N+](C)(C)C (some centres undefined)" measurementtype=pKb numericreadout=8
molecule="CC(C1COC(c2ccccc2)(c2ccccc2)O1)[N+](C)(C)C (racemic; form 2)" measurementtype=pKb numericreadout=7.92
